# testedTarget: EGFR del19/T790M/C797S (Homo sapiens, UniProt P00533, C797S/DEL746-750/T790M)
# Sequence (P00533 with tags, fused parts or gaps DEL746-750/T790M/C797S): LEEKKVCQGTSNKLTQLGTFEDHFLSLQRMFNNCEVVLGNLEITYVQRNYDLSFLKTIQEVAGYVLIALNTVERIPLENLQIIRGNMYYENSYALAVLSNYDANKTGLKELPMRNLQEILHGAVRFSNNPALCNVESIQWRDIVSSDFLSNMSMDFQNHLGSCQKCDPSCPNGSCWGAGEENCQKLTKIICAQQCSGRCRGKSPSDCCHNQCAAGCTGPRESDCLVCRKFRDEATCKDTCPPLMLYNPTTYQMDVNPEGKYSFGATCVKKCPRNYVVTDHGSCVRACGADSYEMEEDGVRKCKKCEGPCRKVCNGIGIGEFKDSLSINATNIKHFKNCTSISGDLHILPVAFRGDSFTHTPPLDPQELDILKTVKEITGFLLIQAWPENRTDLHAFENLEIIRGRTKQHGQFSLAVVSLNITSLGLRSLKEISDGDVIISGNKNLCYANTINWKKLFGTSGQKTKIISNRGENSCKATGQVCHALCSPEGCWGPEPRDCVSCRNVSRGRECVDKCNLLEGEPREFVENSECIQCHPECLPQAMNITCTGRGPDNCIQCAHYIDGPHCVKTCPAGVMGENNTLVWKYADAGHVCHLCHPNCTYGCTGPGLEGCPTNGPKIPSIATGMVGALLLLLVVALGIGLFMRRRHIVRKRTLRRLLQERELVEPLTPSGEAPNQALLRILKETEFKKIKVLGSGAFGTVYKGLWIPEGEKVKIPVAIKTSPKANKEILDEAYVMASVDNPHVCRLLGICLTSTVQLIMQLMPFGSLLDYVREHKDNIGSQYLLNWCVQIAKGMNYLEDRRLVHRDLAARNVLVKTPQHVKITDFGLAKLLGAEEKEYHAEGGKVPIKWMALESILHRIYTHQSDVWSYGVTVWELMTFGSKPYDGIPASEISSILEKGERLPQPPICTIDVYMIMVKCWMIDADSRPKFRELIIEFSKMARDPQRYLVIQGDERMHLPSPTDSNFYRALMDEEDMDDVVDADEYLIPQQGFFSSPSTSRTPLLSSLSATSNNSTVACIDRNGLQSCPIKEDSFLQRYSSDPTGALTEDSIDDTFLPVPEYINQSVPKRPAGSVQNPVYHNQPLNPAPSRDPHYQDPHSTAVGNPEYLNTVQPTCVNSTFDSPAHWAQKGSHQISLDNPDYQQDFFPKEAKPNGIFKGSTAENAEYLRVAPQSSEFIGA
# assayComment: Biochemical EGFR kinase assay (Lance Ultra TR-FRET), triple mutant del19/T790M/C797S
# statedConditions: Km ATP; read-out: IC50 del19/T790M/C797S (nM) Km ATP
assayReadout: IC50 (nM)

[I] C[C@]1(O)CC[C@@H](Nc2cc(Nc3ccnc(-c4cnn(S(=O)(=O)C5CC5)c4)n3)ncc2-n2ccc(C(F)F)n2)CC1
[II] CCOC(=O)c1ccn(-c2cnc(Nc3ccnc(-c4cnn(S(=O)(=O)C5CC5)c4)n3)cc2N[C@H]2CC[C@@](C)(O)CC2)n1
// max by IC50 over [ I , II ] Response format: the label of the selected entry.
II
(II: 0.5 nM, I: 0.3 nM)

---

# testedTarget: EGFR L858R/T790M/C797S (Homo sapiens, UniProt P00533, C797S/L858R/T790M)
# Sequence (P00533 25-1210 T790M/C797S/L858R): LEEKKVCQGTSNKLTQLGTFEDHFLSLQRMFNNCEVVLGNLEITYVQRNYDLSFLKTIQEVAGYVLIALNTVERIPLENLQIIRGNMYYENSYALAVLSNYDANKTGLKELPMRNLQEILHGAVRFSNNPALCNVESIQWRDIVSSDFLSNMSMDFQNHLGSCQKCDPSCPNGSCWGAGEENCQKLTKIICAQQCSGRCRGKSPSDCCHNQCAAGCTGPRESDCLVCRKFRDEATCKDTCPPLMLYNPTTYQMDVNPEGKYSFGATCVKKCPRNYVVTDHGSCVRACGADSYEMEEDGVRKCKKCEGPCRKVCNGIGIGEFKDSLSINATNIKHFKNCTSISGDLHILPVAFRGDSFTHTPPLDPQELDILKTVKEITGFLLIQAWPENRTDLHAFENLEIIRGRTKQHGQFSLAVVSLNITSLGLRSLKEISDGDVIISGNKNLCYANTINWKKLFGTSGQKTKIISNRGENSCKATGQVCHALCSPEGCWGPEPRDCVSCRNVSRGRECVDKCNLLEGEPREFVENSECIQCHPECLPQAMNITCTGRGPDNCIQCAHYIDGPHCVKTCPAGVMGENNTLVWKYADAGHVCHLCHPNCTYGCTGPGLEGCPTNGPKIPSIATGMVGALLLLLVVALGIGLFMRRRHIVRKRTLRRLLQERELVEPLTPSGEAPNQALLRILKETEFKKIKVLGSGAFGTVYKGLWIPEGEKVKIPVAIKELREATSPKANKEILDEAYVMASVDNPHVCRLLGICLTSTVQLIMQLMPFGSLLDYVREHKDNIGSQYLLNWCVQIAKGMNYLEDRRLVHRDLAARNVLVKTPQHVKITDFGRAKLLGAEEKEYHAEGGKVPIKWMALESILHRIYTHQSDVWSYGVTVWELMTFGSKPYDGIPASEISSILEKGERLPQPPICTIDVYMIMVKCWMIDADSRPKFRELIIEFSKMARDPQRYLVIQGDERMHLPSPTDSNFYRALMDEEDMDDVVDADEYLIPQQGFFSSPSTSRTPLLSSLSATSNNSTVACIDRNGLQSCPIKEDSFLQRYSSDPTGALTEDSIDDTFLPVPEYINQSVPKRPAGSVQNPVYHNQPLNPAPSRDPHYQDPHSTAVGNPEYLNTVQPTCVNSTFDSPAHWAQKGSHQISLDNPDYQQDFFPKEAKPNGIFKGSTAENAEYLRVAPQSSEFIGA
# assayComment: Biochemical EGFR kinase assay (Lance Ultra TR-FRET), triple mutant L858R/T790M/C797S
# statedConditions: IC50 L858R/T790M/C797S (nM) 100 μM ATP, 100 μM ATP
assayReadout: IC50 (nM)

Here is how some compounds turned out for IC50.
> print(dat)
                                   compound                              testedtarget  assayreadout  reading
1  Cn1ccc(-c2cnc(Nc3ccnc(-c4cnn(S(=O)(=O)C5CC5)c4)n3)cc2N[C@H]2CC[C@]3(CCC(=O)N3)CC2)n1  EGFR L858R/T790M/C797S (Homo sapiens, UniProt P00533, C797S/L858R/T790M)          IC50      0.2
2  CN(C)C[C@H]1CC[C@H](CNc2cc(Nc3ccnc(-c4cnn(S(=O)(=O)C5CC5)c4)n3)ncc2-c2csc(C(F)(F)F)n2)CC1  EGFR L858R/T790M/C797S (Homo sapiens, UniProt P00533, C797S/L858R/T790M)          IC50      0.3

[P] CC(C)(O)c1nc(-c2cnc(Nc3ccnc(-c4cnn(S(=O)(=O)C5CC5)c4)n3)cc2N[C@H]2CCC[C@H](O)C2)cs1
[Q] CCS(=O)(=O)n1cc(-c2nccc(Nc3cc(N[C@H]4CC[C@@](C)(O)CC4)c(-c4ccn(C(F)F)n4)cn3)n2)cn1
// max by IC50 over [ P , Q ] Response format: the label of the selected entry.
P

---

# testedTarget: EGFR L858R/T790M/C797S (Homo sapiens, UniProt P00533, C797S/L858R/T790M)
# assayComment: Biochemical EGFR kinase assay (Lance Ultra TR-FRET), triple mutant L858R/T790M/C797S
# statedConditions: IC50 L858R/T790M/C797S, 100 μM ATP
assayReadout: IC50 (nM)

Here is how some compounds turned out for IC50.
> print(dat)
                                   compound  assayreadout  reading
1  O=S(=O)(C1CC1)n1cc(-c2nccc(Nc3cc(N[C@H]4C[C@@H](CO)C4)c(-c4ccn(C(F)F)n4)cn3)n2)cn1          IC50      0.7
2  Cn1nc(-c2cnc(Nc3ccnc(N4CCC(O)C(F)(F)C4)n3)cc2NC2CCC(C)(O)CC2)cc1C(F)(F)F (stereo not drawn)          IC50      0.8
3  CC1(O)CCC(Nc2cc(Nc3ccnc(N4CC(CO)C(C)(C)C4)n3)ncc2-c2ccn(C(F)F)n2)CC1 (stereo not drawn)          IC50      1.9
4  CC1(O)CCC(Nc2cc(Nc3ccnc(N4CCC(O)C(F)(F)C4)n3)ncc2-c2ccn(C(F)F)n2)CC1 (stereo not drawn)          IC50      0.6
5  CC1(O)CCC(Nc2cc(Nc3ccnc(N4CC(CO)C(F)(F)C4)n3)ncc2-c2ccn(C(F)F)n2)CC1 (stereo not drawn)          IC50      3.7

[I] C[C@]1(O)CC[C@@H](Nc2cc(Nc3ccnc(-c4cnn(S(=O)(=O)C5CC5)c4)n3)ncc2-n2cccn2)CC1
[II] C[C@]1(CO)C[C@@H](Nc2cc(Nc3ccnc(-c4cnn(S(=O)(=O)C5CC5)c4)n3)ncc2-c2ccn(C(F)F)n2)C1
Quick one: lower IC50, I or II ? Response format: the label of the selected entry.
I

[P] C[C@]1(O)CC[C@@H](Nc2cc(Nc3ccnc(-c4cnn(S(=O)(=O)C5CC5)c4)c3)ncc2-c2ccn(C(F)F)n2)CC1
[Q] CC1(O)CCC(Nc2cc(Nc3ccnc(N4CC(O)C(F)(F)C4)n3)ncc2-c2ccn(C(F)F)n2)CC1 (stereo not drawn)
Quick one: lower IC50, P or Q ? Response format: the label of the selected entry.
Q
(Q: 2.8 nM, P: 13.1 nM)
